# TARGET_UNDER_TEST: 4'-phosphopantetheinyl transferase ffp (Bacillus subtilis) (UniProt Q9F4F7)
# RUN_DESCRIPTION: qHTS Assay for Inhibitors of Bacillus subtilis Sfp phosphopantetheinyl transferase (PPTase);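 also: the enzyme is Sfp with the accession as filed and its product quenches rhodamine fluorescence; 0% = enzyme reaction without inhibitor and -100% = no enzyme wells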
# CONDITION_CONTEXT: Biochemical Sfp PPTase activity
Out of some 310,000 compounds screened, about 11,000 (3.5%) were called active. About 4% were inconclusive and are not listed. This excerpt belongs to a sample that is enriched for actives.
ASSAY_METRIC: largest response in the series, negative = inhibition (%)
Record the value in %, omitting the unit from your answer.

COMPOUND	VAL
COc1ccc(-n2ncc3c2CC(C)(C)CC3NC(=O)CCc2c(C)nn(C)c2C)cc1 (centres undefined)	11.2
Nc1nc(NCc2ccccc2)n(-c2ccccc2)n1	16.4
C[C@@H]1O[C@@H](OC[C@H]2O[C@@H](Oc3cc(O)c4c(c3)O[C@H](c3ccc(O)c(O)c3)CC4=O)[C@H](O)[C@@H](O)[C@@H]2O)[C@H](O)[C@H](O)[C@H]1O	2.86
O=c1cc(O)nc(SCc2ccccc2Cl)[nH]1	-17.3
O=c1[nH]c(SCc2ccccc2)nnc1-c1ccccc1	15.9

stdin: Entry `O=C(N/N=C/c1ccccn1)C12CC3CC(CC(C3)C1)C2` has what largest response in the series, negative = inhibition?
stdout: -35

stdin: Given the entry `COc1ccc2c(c1)c1nc3n(c(=O)c1n2CC(=O)Nc1ccccc1)CCS3` , report its measured largest response in the series, negative = inhibition.
stdout: 1.1

stdin: # input compound: `Cc1n[nH]c(=O)c2c1nnn2Cc1ccc(F)cc1` ; wanted: its largest response in the series, negative = inhibition
stdout: 6.71

stdin: Tell me the measured largest response in the series, negative = inhibition of CCCCN1C(=O)C(C)=C(C)C1OCCc1ccc(OC)c(OC)c1 (centres undefined) , please.
stdout: 14

stdin: # query: largest response in the series, negative = inhibition of entry `CCOC(=O)Cn1c(=O)n(Cc2ccc(OC)cc2)c(=O)c2cccnc21`
stdout: 13

stdin: Which largest response in the series, negative = inhibition is listed for CCC(C)[C@H](NC(=O)N1c2ccccc2NC(=O)[C@@H]1C(C)C)C(=O)N[C@@H](Cc1ccccc1)C(=O)O (some centres undefined) ?
stdout: 13.4

stdin: Which largest response in the series, negative = inhibition value is on record for `O=C(N/N=C/c1ccccn1)c1cccc(NC(=O)c2ccc(Cl)cc2)c1` ?
stdout: 10.1

stdin: Request the reported largest response in the series, negative = inhibition associated with `FC(F)(F)Oc1ccc(NC(=S)NCc2ccccc2)cc1`
stdout: 7.74

stdin: Please report the recorded largest response in the series, negative = inhibition for `COc1cccc2cc(-c3cc(=O)oc4cc(C)c(O)cc34)oc12` .
stdout: -19.1

stdin: Give the measured largest response in the series, negative = inhibition of `O=C(Nc1ccnn1C1CCN(C/C=C/c2ccc(F)cc2)CC1)C1CCCC1` .
stdout: -2.59

stdin: Form field: reported largest response in the series, negative = inhibition of `COc1ccccc1N1CCN(/N=C/c2ccc(O)cc2O)CC1`
stdout: -7.55

stdin: State the recorded largest response in the series, negative = inhibition for this entry: CCCOC1CCCN(C(=O)c2cc(COc3cncc(Cl)c3)on2)C1 (centres undefined)
stdout: -1.29
